- target entity: T1, monkey CAIX on CHO cells (CHO-cyCAIX) (monkey)
- T1 construct: whole, on cells
- assay notes: flow cytometry on CHO-cyCAIX cells
Entries and their measured pEC50 follow.
Kindly note that pEC50 refers to -log10 of the concentration in mol/L and answer with the value alone.

Answered cases to consult:
{"binder": "H-YE-23 (Fc fusion, also called CAIX nanobody H-YE-23; WYE-23; not shown: human IgG1 Fc segment) QVQLQESGGGLVQPGGSLRLSCAASGNSANIFSFASVAWYRQAPGKQRELVAVITSAGGTKYSDSVKGRFTISRDNAKNTILLQMNSLKPEDTAVYYCNVDYLQDYWGQGTQVTVSS", "pEC50": 8.18}
{"binder": "Hu-H-YE-32-D6 (Fc fusion, also called humanized antibody from H-YE-32; not shown: human IgG1 Fc segment) QVQLVESGGGLVQPGGSLRLSCSASGGARNIFSFAAMAWYRQAPGKGLELVAVITSAGGTQYSSSVKGRFTISRDNSKKTLYLQMNSLRAEDTAVYYCNADYYQDYWGQGTQVTVSS", "pEC50": 8.08}
{"binder": "Hu-H-YE-05-D3 (Fc fusion, also called humanized recombinant antibody from H-YE-05; not shown: human IgG1 Fc segment) EVQLLESGGGLVQPGGSLRLSCAASGNSVNIFSFAAMSWYRQAPGKGLELVAVITTTGGTKYSDSVKGRFTISRDNSKNTLYLQMNSLRAEDTAVYYCNADYLQDYWGQGTQVTVSS", "pEC50": 7.84}
{"binder": "Hu-H-YE-05-D4 (Fc fusion, also called humanized recombinant antibody from H-YE-05; not shown: human IgG1 Fc segment) EVQLLESGGGLVQPGGSRRLSCAASGNSVNIFSFAAVAWYRQAPGKQRELVAVITTTGGTKYSDSVKGRFTISRDSSKNTVYLQMNSLRAEDTAVYYCNADYLQDYWGQGTQVTVSS", "pEC50": 7.87}
{"binder": "Hu-H-YE-23-D2 (Fc fusion, T0013 prints the label as Hu-H-YB-23-D2; also called Hu-H-YB-23-D2; humanized recombinant antibody from H-YE-23; not shown: human IgG1 Fc segment) QVQLVESGGGLVQPGGSLRLSCSASGNSANIFSFASVAWYRQAPGKGLELVSVITSAGGTKYSDSVKGRFTISRDNSKNTLYLQMNSLRAEDTAVYYCNVDYLQDYWGQGTLVTVSS", "pEC50": 7.60}

Pending binder:
Field pEC50 (entry H-YE-05 (Fc fusion, also called CAIX nanobody H-YE-05; not shown: human IgG1 Fc segment) QVQLQESGGGLVQPGGSRRLSCAASGNSVNIFSFAAVAWYRQAPGKQRELVAVITTTGGTKYSDSVKGRFTISRDSAKNTVLLQMNSLKPEDTAVYYCNADYLQDYWGQGTQVTVSS ) reads 8.14

Where these numbers come from: patent US20230002503A1
